Entries and their measured CC50 at 4 day follow.
# assay-info: Compound cytotoxicity, XTT-based colorimetric assay
# Assay type: cell-based
# experimental-setup: human, uninfected MT2 cells, day 4, XTT

Below are worked cases with known answers.
Cn1nc(NS(C)(=O)=O)c2c(Cl)ccc(-n3c([C@H](Cc4cc(F)cc(F)c4)NC(=O)Cn4nc(C(F)F)c5c4C(F)(F)[C@@H]4C[C@H]54)nc4cc(-c5ccncc5)ccc4c3=O)c21 (atropisomer, axis not shown; (aR))
> 500 nM
Cn1nc(NS(C)(=O)=O)c2c(Cl)ccc(-n3c([C@H](Cc4cc(F)cc(F)c4)NC(=O)Cn4nc(C(F)F)c5c4C(F)(F)[C@@H]4C[C@H]54)nc4cc(-c5cccc(F)c5F)ccc4c3=O)c21 (atropisomer, axis not shown; (aR))
> 1000 nM
Cc1cc(C)nc(-c2ccc3c(=O)n(-c4ccc(Cl)c5c(NS(C)(=O)=O)nn(CC(F)F)c45)c([C@H](Cc4cc(F)cc(F)c4)NC(=O)Cn4nc(C(F)F)c5c4C(F)(F)[C@@H]4C[C@H]54)nc3c2)n1 (atropisomer, axis not shown; (aR))
> 500 nM

Documented CC50 at 4 day of `Cn1nc(NS(C)(=O)=O)c2c(Cl)ccc(-n3c([C@H](Cc4cc(F)cc(F)c4)NC(=O)Cn4nc(C(F)F)c5c4C(F)(F)[C@@H]4C[C@H]54)nc4cc(-c5cc(F)ccc5CO)ccc4c3=O)c21` : > 500 nM
